# assay-overview: compound effects on differentiated 3T3-L1 adipocyte viability – cell-based, 3T3-L1 adipocytes, calcein-AM fluorescence, 48 h, basal, profiling panel (AID 1163); note: test concentration not given here
# measurement-conditions: 3T3-L1 adipocytes viability, higher = more signal
Entries whose z-score is below -0.2 take 1.0; entries at or above -0.2 take 0.0.

[[record]]
molecule = "CS(=O)(=O)CCOC(=O)C1=CC(CCCO)=CC(C2CC2)N(Cc2cc3c(cc2Br)OCO3)C=C1C(=O)OCCS(C)(=O)=O (stereo not given)"
label_class = 0.0

[[record]]
molecule = "C=C(/C(=C/C[C@H](OC(=O)c1ccncc1)c1ccc(OCCO)cc1)c1cc(C(=O)OC)ccc1OC)C(C)C"
label_class = 0.0

[[record]]
molecule = "C[C@H]1C2[C@H](Cc3ccccc3)NC(=O)[C@]23C(=O)NCC(=O)N2CCC[C@H]2C(=O)NC/C=C/CCC/C=C/C3[C@@H]2O[C@]12C (stereo not given in full)"
label_class = 0.0

[[record]]
molecule = "CCCCN1CC=CC23O[C@@H]4/C=C\\CCCOC(=O)C4[C@H]2C(=O)N(CCCO)[C@@H]3C1=O (stereo not given in full)"
label_class = 0.0

[[record]]
molecule = "CC(=CC1CCCCC1)[C@@H](NC(=O)c1cccnc1)c1ccc(-c2ccccc2)cc1"
label_class = 1.0

[[record]]
molecule = "COc1ccc(-c2cc3c(c(Cc4ccccc4)n2)[Si](C(C)C)(C(C)C)OC3)cn1"
label_class = 0.0

[[record]]
molecule = "CC1CC/C=C\\[C@H]2OC34C=CCN(Cc5ccccc5)C(=O)[C@H]3N(C(C)CO)C(=O)[C@@H]4C2C(=O)O1 (stereo not given in full)"
label_class = 1.0

[[record]]
molecule = "CN(C)CCCCNC(=O)[C@@H]1C[C@@H]2C(=O)N[C@@H](CCCCN)C(=O)N2[C@@H]1c1ccc(O)cc1"
label_class = 1.0

[[record]]
molecule = "CN1C(=O)C2C=CC(C(O)c3ccc(F)cc3)N(N(c3ccccc3)c3ccccc3)C2C1=O (stereo not given)"
label_class = 1.0

[[record]]
molecule = "COc1ccc(CCNC(=O)[C@@]2(c3ccc([N+](=O)[O-])cc3)CC(=O)N(CC34CC5CC(CC(C5)C3)C4)[C@@H]2c2ccc(CO)cc2I)cc1"
label_class = 0.0

[[record]]
molecule = "COCCOC(=O)N1C(=O)[C@@]2(c3cc(C#CC4=CCCCC4)ccc31)[C@H](c1ccc(OCCO)cc1)N1[C@H](c3ccccc3)[C@H](c3ccccc3)OC(=O)[C@H]1[C@@H]2C(=O)N1CCc2cc(OC)c(OC)cc2C1"
label_class = 0.0

[[record]]
molecule = "CCCCCCc1nc(-c2ccc(-c3ccc(Cl)c(Cl)c3)o2)cc2c1[Si](C(C)C)(C(C)C)O[C@H]2c1ccccc1"
label_class = 0.0

[[record]]
molecule = "CC(C)(C)OC(=O)CC[C@]1(C(N)=O)N=C(c2ccc(OCCCO)cc2)O[C@H]1c1ccccc1"
label_class = 0.0

[[record]]
molecule = "CCOc1cc(C(O)C2C=CC3C(=O)N(c4ccccc4)C(=O)C3N2Nc2ccc(C(C)C)cc2)ccc1O (stereo not given)"
label_class = 1.0

[[record]]
molecule = "COc1ccc([Si](C)(C)[C@H]2[C@H](CCn3cc([C@H](O)c4ccccc4)nn3)O[C@@]3(C(=O)N(C)c4ccccc43)[C@@H]2C)cc1"
label_class = 1.0

